conditions: human gut metagenome, 24 h, 2 µM; also: call rule not given here
Assay Readout: Bacterial Biotransformation

- CC(=O)O[C@H]1C(=O)[C@@]2(C)[C@H]([C@H](OC(=O)c3ccccc3)[C@]3(O)C[C@H](OC(=O)[C@H](O)[C@@H](NC(=O)c4ccccc4)c4ccccc4)C(C)=C1C3(C)C)[C@]1(OC(C)=O)CO[C@@H]1C[C@@H]2O [PACLITAXEL]: Compound metabolized
- CC(=O)OCC(CCn1cnc2cnc(N)nc21)COC(C)=O [FAMCICLOVIR]: Compound metabolized
- CC[C@H](C)C(=O)O[C@H]1CCC=C2C=C[C@H](C)[C@H](CC[C@@H]3C[C@@H](O)CC(=O)O3)[C@H]21 [MEVASTATIN]: Compound metabolized
- N#Cc1ccc2c(c1)N(CCCN1CCC(O)CC1)c1ccccc1S2 [PERICIAZINE]: Compound NOT metabolized
- COc1ccc(CN2CCNCC2)c(OC)c1OC.Cl.Cl [TRIMETAZIDINE DIHYDROCHLORIDE]: Compound NOT metabolized
- O=C1N=C([O-])NC1(c1ccccc1)c1ccccc1.[Na+] [PHENYTOIN SODIUM]: Compound NOT metabolized
- COCCCC/C(=N\OCCN)c1ccc(C(F)(F)F)cc1.O=C(O)/C=C\C(=O)O [FLUVOXAMINE MALEATE]: Compound NOT metabolized
- O=C(NC(Cc1cc(=O)[nH]c2ccccc12)C(=O)O)c1ccc(Cl)cc1 (stereo not given) [REBAMIPIDE]: Compound NOT metabolized
- O=C(CCCN1CCC2(CC1)C(=O)NCN2c1ccccc1)c1ccc(F)cc1 [SPIPERONE]: Compound NOT metabolized
- CCN(C)C(=O)Oc1cccc([C@H](C)N(C)C)c1.O=C(O)C(O)C(O)C(=O)O [RIVASTIGMINE TARTRATE]: Compound NOT metabolized
- O=C([O-])C[C@H](O)C[C@H](O)/C=C/c1c(C2CC2)nc2ccccc2c1-c1ccc(F)cc1.O=C([O-])C[C@H](O)C[C@H](O)/C=C/c1c(C2CC2)nc2ccccc2c1-c1ccc(F)cc1.[Ca+2] [PITAVASTATIN CALCIUM]: Compound metabolized
- O=C(O)CCC(=O)O.O=C(O[C@H]1CN2CCC1CC2)N1CCc2ccccc2[C@@H]1c1ccccc1 [SOLIFENACIN SUCCINATE]: Compound NOT metabolized
- OCCN(CCO)c1nc(N2CCCCC2)c2nc(N(CCO)CCO)nc(N3CCCCC3)c2n1 [DIPYRIDAMOLE]: Compound NOT metabolized
- Clc1cccc(Cl)c1N=C1NCCN1 [CLONIDINE]: Compound metabolized
- CC(NC(C)(C)C)C(=O)c1cccc(Cl)c1 (stereo not given) [BUPROPION]: Compound NOT metabolized
